target: wildtype HIV-1 protease (Human immunodeficiency virus type 1 group M subtype B); construct: the wildtype HIV-1 protease (which was expressed in Escherichia coli); made in house; host or cells: Escherichia coli; assay: Assay for inhibition of microbial expressed HIV protease (Pepcleav); type: biochemical; details: wild type HIV-1 protease expressed in E. coli, peptide substrate, pH 5.5; mean of at least two independent experiments; read-out: Pepcleav
Would you mind telling me the reported pIC50 of each entry?
// scale note: pIC50 = -log10(conc_M); give the bare number

Which pIC50 is reported for this compound? NC(=O)OC[C@@H]1CO[C@H](COc2c(F)cc(F)cc2NC(=O)[C@@H](N)C(c2ccc(F)cc2)c2ccc(F)cc2)CN1
8.30

Which pIC50 is reported for this compound? O=C(C[C@H](c1ccc(F)cc1)c1ccc(Cl)cc1)Nc1cccc(F)c1CC[C@@H]1CN[C@H](COC(=O)NCC(F)(F)F)CO1
8.29

Which pIC50 is reported for this compound? N[C@H](C(=O)Nc1cccc(F)c1CC[C@@H]1CN[C@H](COC(=O)NCC(F)(F)F)CO1)[C@H](c1ccccc1)c1ccc(OC(F)(F)F)cc1
7.16

Which pIC50 is reported for this compound? N[C@H](C(=O)Nc1cncc(F)c1CC[C@@H]1CN[C@H](COC(=O)NCC(F)(F)F)CO1)[C@H](c1ccc(F)cc1)c1ccc(Br)cc1
9.40

Which pIC50 is reported for this compound? CCC[C@H](c1ccccc1)[C@H](N)C(=O)Nc1cccc(F)c1CC[C@@H]1CN[C@H](COC(=O)NCC(F)(F)F)CO1
6.72

Which pIC50 is reported for this compound? COC(=O)N[C@H](C(=O)Nc1cncc(F)c1CC[C@@H]1CN[C@H](COC(=O)NCC(F)(F)F)CO1)C(c1cccc(F)c1)c1cccc(F)c1
9.00

Which pIC50 is reported for this compound? O=C(NCC(F)(F)F)OC[C@@H]1CO[C@H](CCc2c(F)cncc2NC(=O)[C@@H](NC(=O)OCCF)C(c2ccc(F)cc2)c2ccc(F)cc2)CN1
8.72

Which pIC50 is reported for this compound? COC(=O)N[C@H](C(=O)Nc1cccc(F)c1CC[C@@H]1CN[C@H](COC(=O)NCC(F)(F)F)CO1)[C@H](c1ccccc1)c1ccc(F)c(F)c1
8.42

Which pIC50 is reported for this compound? CCC(CO)NC(=O)OC[C@@H]1CO[C@H](CCc2c(F)cncc2NC(=O)CC(c2ccc(F)cc2)c2ccc(F)cc2)CN1 (stereo partly drawn)
8.35

Which pIC50 is reported for this compound? NC(=O)OC[C@@H]1CO[C@H](CCc2c(F)cccc2NC(=O)C[C@@H](c2ccc(F)cc2)c2ccncc2F)CN1
8.02

Which pIC50 is reported for this compound? COC(=O)N[C@H](C(=O)Nc1cccc(F)c1CC[C@@H]1CN[C@H](COC(=O)NCC(F)(F)F)CO1)[C@H](c1ccc(F)cc1)c1ccc2ccccc2c1
7.80

Which pIC50 is reported for this compound? COC(=O)N[C@H](C(=O)Nc1ccccc1CC[C@@H]1CN[C@H](COC(=O)NCc2cccnc2)CO1)C(c1ccccc1)c1ccccc1
7.11

----------
molecular target: wildtype HIV-1 protease (Human immunodeficiency virus type 1 group M subtype B, UniProt P04585); construct: the wildtype HIV-1 protease (which was expressed in Escherichia coli); made in house; host or cells: Escherichia coli; test: Assay for inhibition of microbial expressed HIV protease (Pepcleav); assay type: biochemical; conditions: wild type HIV-1 protease expressed in E. coli, peptide substrate, pH 5.5; mean of at least two independent experiments; read-out: Pepcleav
Where a name gives a salt, the structure may show the parent alone.
Would you mind telling me the reported pIC50 of each entry?
// scale note: pIC50 = -log10(conc_M); give the bare number

Which pIC50 is reported for this compound? COC(=O)N[C@H](C(=O)Nc1ccccc1CC[C@@H]1CN[C@H](CNC(=O)Nc2cccnn2)CO1)C(c1ccccc1)c1ccccc1
8.54

Which pIC50 is reported for this compound? N[C@H](C(=O)Nc1cncc(F)c1CC[C@@H]1CN[C@H](COC(=O)NCC(F)(F)F)CO1)C(c1ccc(F)cc1)c1ccc(F)cc1 [Example 79, trihydrochloride]
8.44

Which pIC50 is reported for this compound? N[C@H](C(=O)Nc1cccc(F)c1CC[C@@H]1CN[C@H](COC(=O)NCC(F)(F)F)CO1)[C@H](c1ccc(F)cc1)c1ccc(OC(F)(F)F)cc1
6.82

Which pIC50 is reported for this compound? N[C@H](C(=O)Nc1cncc(F)c1CC[C@@H]1CN[C@H](COC(=O)NCC(F)(F)F)CO1)[C@H](c1ccc(F)cc1)c1ccc(Cl)c(F)c1
8.96

Which pIC50 is reported for this compound? N[C@H](C(=O)Nc1cncc(F)c1CC[C@@H]1CN[C@H](COC(=O)NCC(F)(F)F)CO1)[C@H](c1ccccc1)c1ccc(OC(F)(F)F)cc1
7.16

Which pIC50 is reported for this compound? N[C@H](C(=O)Nc1c(F)cccc1OC[C@@H]1CN[C@H](COC(=O)NCC(F)(F)F)CO1)C(c1ccc(F)cc1)c1ccc(F)cc1
7.51

----------
Would you mind telling me the reported IC50 of each entry?
biological target: wildtype HIV-1 protease (Human immunodeficiency virus type 1 group M subtype B, UniProt P04585); construct: the wildtype HIV-1 protease (which was expressed in Escherichia coli); made in house; host or cells: Escherichia coli; assay: Assay for inhibition of microbial expressed HIV protease (Pepcleav); format: biochemical; conditions: wild type HIV-1 protease expressed in E. coli, peptide substrate, pH 5.5; mean of at least two independent experiments; read-out: Pepcleav
Only the number, expressed in nM, is required.

Which IC50 is reported for this compound? COC(=O)Nc1ccccc1CC[C@@H]1CO[C@H](CCc2ccccc2NC(=O)[C@@H](NC(=O)OC)C(c2ccccc2)c2ccccc2)CN1
52

Which IC50 is reported for this compound? COC(=O)N[C@H](C(=O)Nc1ccccc1CC[C@@H]1CN[C@H](CNC(=O)c2cccnn2)CO1)C(c1ccccc1)c1ccccc1
26

Which IC50 is reported for this compound? C[C@H](Oc1c(F)cccc1NC(=O)[C@@H](N)C(c1ccc(F)cc1)c1ccc(F)cc1)[C@@H]1CN[C@H](COC(=O)NCC(F)(F)F)CO1
120

Which IC50 is reported for this compound? N[C@H](C(=O)Nc1cncc(F)c1CC[C@@H]1CN[C@H](COC(=O)NCC(F)(F)F)CO1)[C@H](c1ccccc1)c1ccc(F)c(F)c1
5

Which IC50 is reported for this compound? N[C@H](C(=O)Nc1cncc(F)c1CC[C@@H]1CN[C@H](COC(=O)NC2CCCOC2)CO1)C(c1ccc(F)cc1)c1ccc(F)cc1 (stereo partly drawn)
7.7

Which IC50 is reported for this compound? COC(=O)N[C@H](C(=O)Nc1ccccc1CC[C@@H]1CN[C@H](C(=O)O)CO1)C(c1ccccc1)c1ccccc1
65

----------
Would you mind telling me the reported IC50 of each entry?
biological target: wildtype HIV-1 protease (Human immunodeficiency virus type 1 group M subtype B, UniProt P04585); construct: the wildtype HIV-1 protease (which was expressed in Escherichia coli); made in house; host or cells: Escherichia coli; assay: Assay for inhibition of microbial expressed HIV protease (Pepcleav); type: biochemical; conditions: wild type HIV-1 protease expressed in E. coli, peptide substrate, pH 5.5; mean of at least two independent experiments; read-out: Pepcleav
Only the number, expressed in nM, is required.

Which IC50 is reported for this compound? COC(=O)N[C@H](C(=O)Nc1c(CC[C@@H]2CN[C@H](COC(=O)NCc3ccc(F)cc3)CO2)cc[nH]c1=O)C(c1ccccc1)c1ccccc1
0.6

Which IC50 is reported for this compound? COC(=O)N[C@H](C(=O)Nc1cccc(F)c1CC[C@@H]1CN[C@H](COC(=O)NCC(F)(F)F)CO1)[C@H](c1ccccc1)c1cccc(OC)c1
230

Which IC50 is reported for this compound? N[C@H](C(=O)Nc1cccc(F)c1CC[C@@H]1CN[C@H](COC(=O)NCC(F)(F)F)CO1)[C@H](c1ccc(F)cc1)c1ccc(Cl)cc1
1.4

Which IC50 is reported for this compound? N[C@H](C(=O)Nc1cccc(F)c1CC[C@@H]1CN[C@H](COC(=O)NCC(F)(F)F)CO1)[C@@H](c1ccc(F)cc1)c1cc(F)cc(F)c1
8.2

Which IC50 is reported for this compound? N[C@H](C(=O)Nc1cncc(F)c1CC[C@@H]1CN[C@H](COC(=O)NCC(F)(F)F)CO1)[C@H](c1ccc(F)cc1)c1ccc2ccccc2c1
9.9

Which IC50 is reported for this compound? N[C@H](C(=O)Nc1cncc(F)c1CC[C@@H]1CN[C@H](COC(=O)NCC(F)(F)F)CO1)[C@@H](c1ccc(Cl)cc1)c1cc(F)cc(F)c1
0.8

----------
Biological target: wildtype HIV-1 protease (Human immunodeficiency virus type 1 group M subtype B)
Construct: the wildtype HIV-1 protease (which was expressed in Escherichia coli); made in house; host or cells: Escherichia coli
Test: Assay for inhibition of microbial expressed HIV protease (Pepcleav)
Assay type: biochemical
Conditions: wild type HIV-1 protease expressed in E. coli, peptide substrate, pH 5.5; mean of at least two independent experiments; read-out: Pepcleav
Method: Assay for Inhibition of Microbial Expressed HIV Protease (“Pepcleav”) Studies of the inhibition of the wildtype HIV-1 protease (which was expressed in Escherichia coli) were carried out with a peptide substrate [Val-Ser-Gln-Asn-(βnaphthyl)Ala-Pro-Ile-Val (SEQ ID NO:1)]. […] The extent of inhibition of the reaction is determined from the peak area of the products.
Please assign f whenever IC50 is at or above 6 nM, and t whenever it is below.

Quick check: IC50 of COC(=O)N[C@H](C(=O)Nc1cccc(F)c1CC[C@@H]1CN[C@H](COC(N)=O)CO1)C(c1ccc(F)cc1)c1ccc(F)cc1 [Example 284] under 6 nM?
f

Quick check: IC50 of N[C@H](C(=O)Nc1cncc(F)c1CC[C@@H]1CN[C@H](COC(=O)NC2(c3ccccn3)CC2)CO1)C(c1ccc(F)cc1)c1ccc(F)cc1 [Example 214] under 6 nM?
t

Quick check: IC50 of CCN(CC)C(=O)OC[C@@H]1CO[C@H](CCc2ccccc2NC(=O)[C@@H](NC(=O)OC)C(c2ccccc2)c2ccccc2)CN1 [Example 25] under 6 nM?
f

Quick check: IC50 of CC(C)COC(=O)N[C@H](C(=O)Nc1cncc(F)c1CC[C@@H]1CN[C@H](COC(=O)NCC(F)(F)F)CO1)C(c1ccc(F)cc1)c1ccc(F)cc1 [Example 140] under 6 nM?
t

Quick check: IC50 of CCC[C@@H](c1ccccc1)[C@H](N)C(=O)Nc1cccc(F)c1CC[C@@H]1CN[C@H](COC(=O)NCc2ccc(F)cc2)CO1 [Example 199] under 6 nM?
f
